B1: glmS ribozyme (parent)
chain: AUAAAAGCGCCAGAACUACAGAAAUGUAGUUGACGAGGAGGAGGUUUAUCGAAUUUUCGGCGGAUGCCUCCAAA

# Variants of: B1
# assay-procedure: self-cleavage kobs at 640 uM GlcN6P; higher = faster cleavage; RNA array
# test-context: with glucosamine-6-phosphate
Variants at the floor of the assay were thinned out.
Think of 0.0002 s⁻¹ as a floor: if self-cleavage kobs at 640 uM GlcN6P stands on it or above, it is 1 (yes); beneath it, 0 (no).

A52C A64G: 0 (no)
G29U U56A: 1 (yes)
C10U A36U C70A: 1 (yes)
U31A A42U U57A A64G C71A: 0 (no)
G38U C61A: 0 (no)

Quick check, self-cleavage kobs at 640 uM GlcN6P >= 0.0002 s⁻¹? A14G C71A
1 (yes)

Tell me whether self-cleavage kobs at 640 uM GlcN6P is at least 0.0002 s⁻¹ here: G32C C50G
0 (no)

Decide: is the reported value of self-cleavage kobs at 640 uM GlcN6P for G37A A53C C71U equal to or greater than 0.0002 s⁻¹?
0 (no)

Record C50G C58A G62C G63C C70A ; criterion: self-cleavage kobs at 640 uM GlcN6P no lower than 0.0002 s⁻¹. Met?
0 (no)

Given the entry G43C U45A C67U , answer whether its self-cleavage kobs at 640 uM GlcN6P meets or surpasses 0.0002 s⁻¹.
1 (yes)
